# System: Chordin-like protein 2 (CHRDL2)
# TEST_DESCRIPTION: CHRDL2 small-molecule binders, primary screen, biochemical, small-molecule microarray, 635 nm fluorescence (AID 1126);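 also: printed compound slides probed with Chrdl2 protein at 4 µg/mL for 1 h at 4 C; score merges 667 nm emission intensity with signal to noise over three replicate slides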
# TEST_SETTINGS: small-molecule microarray binding, fluorescence 635 nm; higher = more signal
Known composite z-score of a selection of compounds
# answer = number (no unit)

Would you please look over these solved cases?
[
  {
    "COMPOUND": "C[C@@H]1C=CCC(=O)OC[C@H](C)C(=O)N2CCC[C@H]2C(=O)OC1",
    "composite z-score": 1.58
  },
  {
    "COMPOUND": "CCCC[C@@H]1C[C@H]1[C@@H](NS(=O)(=O)c1cccc2cccnc12)c1ccc(-c2ccccc2)cc1",
    "composite z-score": -1
  },
  {
    "COMPOUND": "CCOC(=O)[C@H](CC(C)C)NC(=O)CCC1CC(OC(=O)NCc2cccc3ccccc23)CC2(CCCC(COC(=O)NCCN3CCOCC3)O2)O1 (some centres not stated)",
    "composite z-score": 0.915
  }
]

Write down composite z-score measured for item `C[C@H](c1ccccc1)N1C(=O)[C@H]2[C@@H]3C(=CC[C@H]2C1=O)C(=O)[C@H]1O[C@H]1[C@H]3O` 1.02

Retrieve composite z-score measured for `COCCOC(=O)N1C(=O)[C@@]2(c3ccccc31)[C@H](C(N)=O)[C@H]1C(=O)O[C@H](c3ccccc3)[C@H](c3ccccc3)N1[C@@H]2c1ccccc1OCCO` and print it. 0.522

Given `CCOC(=O)NN=C1C[C@@H](O)[C@@H](O)[C@@H]2[C@@H]3C(=O)N(C4CCCCC4)C(=O)[C@@H]3CC[C@@H]12` , respond with its composite z-score. 0.645

Please indicate composite z-score recorded for CN1C(=O)C2C=CC(C(O)c3ccc(I)cc3)N(NC(=O)OC(C)(C)C)C2C1=O (configuration not stated) -0.294
